testedTarget: Cholinesterase (Equus caballus, UniProt P81908)
Sequence (P81908 whole entry): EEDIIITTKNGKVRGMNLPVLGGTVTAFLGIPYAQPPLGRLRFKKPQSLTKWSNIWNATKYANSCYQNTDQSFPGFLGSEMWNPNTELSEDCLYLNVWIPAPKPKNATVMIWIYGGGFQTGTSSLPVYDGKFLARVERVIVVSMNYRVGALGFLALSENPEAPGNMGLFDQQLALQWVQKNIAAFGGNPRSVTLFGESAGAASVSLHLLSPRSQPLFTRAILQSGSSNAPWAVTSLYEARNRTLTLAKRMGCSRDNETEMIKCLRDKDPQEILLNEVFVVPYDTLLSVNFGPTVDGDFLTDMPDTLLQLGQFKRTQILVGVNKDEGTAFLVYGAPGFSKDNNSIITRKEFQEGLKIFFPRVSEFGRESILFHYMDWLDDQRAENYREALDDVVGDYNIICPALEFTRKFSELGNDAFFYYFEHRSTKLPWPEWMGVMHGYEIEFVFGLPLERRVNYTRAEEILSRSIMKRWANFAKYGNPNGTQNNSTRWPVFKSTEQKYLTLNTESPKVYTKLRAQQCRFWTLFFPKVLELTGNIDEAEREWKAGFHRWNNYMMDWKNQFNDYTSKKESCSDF
testDetails: Inhibition of equine serum BChE using butylthiocholine iodide as substrate preincubated for 10 mins prior to substrate addition by Ellman's method
pIC50: −log10 of the molar value.
quantity: pIC50

| smilesText | quantity | testResult |
| --- | --- | --- |
| O=C(CCCOc1cc(=O)oc2ccccc12)N1CCC(Cc2ccccc2)CC1 | pIC50 | 4.12 |
| O=C(COc1cc(=O)oc2ccccc12)N1CCN(c2ccccc2O)CC1 | pIC50 | < 4.00 |
| O=C(CCCOc1cc(=O)oc2ccccc12)N1CCC(O)(c2ccc(Br)cc2)CC1 | pIC50 | < 4.00 |
| O=C(CCCOc1cc(=O)oc2ccccc12)N1CCN(c2ccc(F)cc2)CC1 | pIC50 | < 4.00 |
| O=C(COc1cc(=O)oc2ccccc12)N1CCC(Cc2ccccc2)CC1 | pIC50 | 4.19 |
| O=C(COc1cc(=O)oc2ccccc12)N1CCN(c2ccc(F)cc2)CC1 | pIC50 | 4.12 |
| O=C(CCCOc1cc(=O)oc2ccccc12)N1CCC(O)(c2ccc(Cl)cc2)CC1 | pIC50 | < 4.00 |
| O=C(CCCOc1cc(=O)oc2ccccc12)N1CCN(c2ccc(Cl)c(Cl)c2)CC1 | pIC50 | < 4.00 |
| O=C(CCCOc1cc(=O)oc2ccccc12)NC1CCN(Cc2ccccc2)CC1 | pIC50 | 4.39 |
| O=C(CCCOc1cc(=O)oc2ccccc12)N1CCN(c2ccccc2F)CC1 | pIC50 | < 4.00 |
| O=C(COc1cc(=O)oc2ccccc12)N1CCN(c2ccccc2F)CC1 | pIC50 | < 4.00 |
| O=C(COc1cc(=O)oc2ccccc12)N1CCC(O)(c2ccc(Cl)cc2)CC1 | pIC50 | < 4.00 |
| O=C(CCCOc1cc(=O)oc2ccccc12)N1CCN(c2ccccc2)CC1 | pIC50 | < 4.00 |
| O=C(COc1cc(=O)oc2ccccc12)N1CCN(c2ccccc2)CC1 | pIC50 | < 4.00 |
| COc1ccc(CCNC(=O)CCCOc2cc(=O)oc3ccccc23)cc1OC | pIC50 | < 4.00 |
| O=C(CCCOc1cc(=O)oc2ccccc12)N1CCN(c2ccccc2O)CC1 | pIC50 | < 4.00 |
| O=C(COc1cc(=O)oc2ccccc12)N1CCN(c2ccc(Cl)c(Cl)c2)CC1 | pIC50 | 4.05 |
| O=C(COc1cc(=O)oc2ccccc12)N1CCC(O)(c2ccc(Br)cc2)CC1 | pIC50 | < 4.00 |
| O=C(COc1cc(=O)oc2ccccc12)NC1CCN(Cc2ccccc2)CC1 | pIC50 | 4.35 |

* * *

Each entry below carries its measured IC50, system: Acetylcholinesterase (Electrophorus electricus).
Sequence (O42275 whole entry): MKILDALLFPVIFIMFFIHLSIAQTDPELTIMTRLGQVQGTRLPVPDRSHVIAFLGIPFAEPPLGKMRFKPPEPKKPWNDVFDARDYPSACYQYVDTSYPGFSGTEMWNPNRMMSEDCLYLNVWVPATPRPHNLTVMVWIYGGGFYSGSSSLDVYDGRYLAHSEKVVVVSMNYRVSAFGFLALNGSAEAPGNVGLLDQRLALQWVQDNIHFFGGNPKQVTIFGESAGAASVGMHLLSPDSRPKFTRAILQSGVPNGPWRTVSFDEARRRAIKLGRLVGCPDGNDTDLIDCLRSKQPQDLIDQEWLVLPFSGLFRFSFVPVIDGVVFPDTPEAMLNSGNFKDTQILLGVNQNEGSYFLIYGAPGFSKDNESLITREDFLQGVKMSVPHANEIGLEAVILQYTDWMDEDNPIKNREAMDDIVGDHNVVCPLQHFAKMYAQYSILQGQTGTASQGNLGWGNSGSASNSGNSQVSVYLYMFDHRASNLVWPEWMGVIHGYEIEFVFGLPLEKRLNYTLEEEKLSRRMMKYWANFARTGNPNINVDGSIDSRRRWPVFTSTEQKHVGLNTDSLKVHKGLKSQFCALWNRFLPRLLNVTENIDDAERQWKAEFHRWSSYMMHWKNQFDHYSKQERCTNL

| smilesText | unitLabel | readingQualifier | IC50 |
| --- | --- | --- | --- |
| O=C(COc1cc(=O)oc2ccccc12)N1CCN(c2ccccc2)CC1 | µM | = | 2.9 |
| O=C(CCCOc1cc(=O)oc2ccccc12)N1CCC(O)(c2ccc(Br)cc2)CC1 | µM | > | 100 |
| O=C(COc1cc(=O)oc2ccccc12)N1CCN(c2ccccc2O)CC1 | µM | = | 21.2 |
| O=C(COc1cc(=O)oc2ccccc12)N1CCN(c2ccccc2F)CC1 | µM | = | 12.1 |
| O=C(COc1cc(=O)oc2ccccc12)N1CCN(c2ccc(Cl)c(Cl)c2)CC1 | µM | = | 2.3 |

The values you see were collected from ChEMBL document CHEMBL2390863.
